Measured values drawn from patent US8168651B2 for this set.

assay.text: Pharmacokinetics after IV and PO dose in beagle dogs
Format: in vivo
measurement.setup: dog, plasma; PO 3.80 mg/kg, Beagle dogs
Method: The pharmacokinetics properties of drugs were also investigated in SD rats and beagle dogs following an intravenous (IV) bolus and oral (PO) doses of drug using similar methods. Blood samples were collected at predetermined times and the plasma separated. Drug levels were quantified by the LC/MS/MS method described below. […] The terminal t1/2 and C0 were calculated using the last three and the first three data points, respectively […]
property.label: Cmax (ng/mL)
Write down the numeric answer in ng/mL and omit the unit.

Exercise: Quick one: Cmax of O=C(O)c1ccc2c(c1)nc(Nc1cccc(Cl)c1)c1ccncc12 [Compound A1] ?
Key: 495
